# assaySystem: T1, sIL-6R (soluble IL-6 receptor; SBH Sciences) (human, UniProt P08887 20-365)
# T1 construct: also called human IL-6R
# T1 sequence: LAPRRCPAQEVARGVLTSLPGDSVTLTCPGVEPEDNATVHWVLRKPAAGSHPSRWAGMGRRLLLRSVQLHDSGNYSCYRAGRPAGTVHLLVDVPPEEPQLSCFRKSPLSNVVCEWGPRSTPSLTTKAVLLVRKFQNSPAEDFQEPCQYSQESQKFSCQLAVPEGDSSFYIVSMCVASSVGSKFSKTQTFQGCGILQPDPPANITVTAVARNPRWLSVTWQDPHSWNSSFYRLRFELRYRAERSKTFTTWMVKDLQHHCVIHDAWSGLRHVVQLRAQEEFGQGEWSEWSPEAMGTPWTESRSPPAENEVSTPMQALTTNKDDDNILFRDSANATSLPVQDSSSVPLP
# protocolDescription: SPR (BIAcore 3000), antibody on chip, sIL-6R analyte, 25 C
# Protocol: All SPR measurements were performed on a BIAcore 3000 instrument (GE Biosciences, Piscataway, N.J.). BIAcore Software-BIAcore 3000 Control Software V3.2 was used for the operation and control of the BIAcore 3000 instrument. […] Data was analyzed by using the Kinetics Wizard and the manual fitting programs that are both included with the BiaEvaluation Software V4.1.
quantityKind: kon (M⁻¹ s⁻¹)
Use M⁻¹ s⁻¹ as the unit, but write only the number.

INPUT: For 56# (antibody, human IgG1, kappa, V domains shown, also called Sample # 56) VH: QVQLQESGPGLVRPSQTLSLTCTVSGYSITSDHAWSWVRQPPGRGLEWIGFISYSGMITYNPSLKSRVTMLRDTSKNQFSLRLSSVTAADTAVYYCARSLARITAMDYWGQGSLVTVSS VL: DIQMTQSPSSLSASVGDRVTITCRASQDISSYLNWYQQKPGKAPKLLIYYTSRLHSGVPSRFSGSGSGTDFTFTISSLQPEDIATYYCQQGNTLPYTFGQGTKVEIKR , what is its reported kon?
OUTPUT: 230000
